Measured cell viability, listed per entry for reference.
system: NCC-MFS5-C1; test: cell viability relative to DMSO control; higher = less growth inhibition; settings: 10 µM; treatment time: 3 days
Where a name gives a salt, the structure may show the parent alone.
ENDPOINT_NAME: cell viability (%)

{"columns": ["COMPOUND", "RESULT"],
 "data": [
  ["COc1cc(Nc2c(C#N)cnc3cc(OCCCN4CCN(C)CC4)c(OC)cc23)c(Cl)cc1Cl [Bosutinib (SKI-606)]", 22.1],
  ["CCCS(=O)(=O)Nc1ccc(F)c(C(=O)c2c[nH]c3ncc(-c4ccc(Cl)cc4)cc23)c1F [Vemurafenib (PLX4032, RG7204)]", 76],
  ["CCCCCCNC(=O)n1cc(F)c(=O)[nH]c1=O [Carmofur]", 81.5],
  ["CN(N=O)C(=O)NC1C(O)OC(CO)C(O)C1O (stereo unspecified) [Streptozotocin (STZ)]", 113],
  ["Nc1cc(C(Cl)=C(Cl)Cl)c(S(N)(=O)=O)cc1S(N)(=O)=O [Clorsulon]", 89.3],
  ["C#Cc1cccc(Nc2ncnc3cc(OCCOC)c(OCCO)cc23)c1", 92.2],
  ["Cc1ccc(NC(=O)c2ccc(CN3CCN(C)CC3)cc2)cc1Nc1nccc(-c2cccnc2)n1 [Imatinib (STI571)]", 72.9],
  ["Nc1cccc2c1C(=O)N(C1CCC(=O)NC1=O)C2=O (stereo unspecified) [Pomalidomide]", 97.7],
  ["N=C(N)NC(=N)N1CCOCC1 [Moroxydine HCl]", 91.2],
  ["COC(=O)C1=C(C#N)NC(C)=C(C(=O)OC(C)C)C1c1cccc([N+](=O)[O-])c1 (stereo unspecified) [Nilvadipine]", 86],
  ["O=c1[nH]c(=O)n([C@H]2C[C@H](O)[C@@H](CO)O2)cc1F [Floxuridine]", 80],
  ["COC(=O)C[C@](O)(CCCC(C)(C)O)C(=O)O[C@@H]1C(OC)=C[C@]23CCCN2CCc2cc4c(cc2[C@H]13)OCO4 [Homoharringtonine]", 54],
  ["CC(=O)OCC(=O)[C@@]1(O)CC[C@H]2[C@@H]3CCC4=CC(=O)CC[C@]4(C)[C@H]3C(=O)C[C@@]21C [Cortisone acetate]", 90.9],
  ["CC[C@H](Nc1ncnc2[nH]cnc12)c1nc2cccc(F)c2c(=O)n1-c1ccccc1 [CAL-101 (Idelalisib, GS-1101)]", 72.3],
  ["C/C(=C\\c1csc(C)n1)[C@@H]1C[C@@H]2O[C@]2(C)CCC[C@H](C)[C@H](O)[C@@H](C)C(=O)C(C)(C)[C@@H](O)CC(=O)N1", 51.2],
  ["CO[C@@]12[C@H](COC(N)=O)C3=C(C(=O)C(C)=C(N)C3=O)N1C[C@@H]1N[C@@H]12 [Mitomycin C]", 41.7]
]}

The origin of these recorded values is the supplement of paper PMC8773631.
